- target-or-system: Hepatocyte growth factor receptor (Homo sapiens)
- Sequence (P08581 whole entry): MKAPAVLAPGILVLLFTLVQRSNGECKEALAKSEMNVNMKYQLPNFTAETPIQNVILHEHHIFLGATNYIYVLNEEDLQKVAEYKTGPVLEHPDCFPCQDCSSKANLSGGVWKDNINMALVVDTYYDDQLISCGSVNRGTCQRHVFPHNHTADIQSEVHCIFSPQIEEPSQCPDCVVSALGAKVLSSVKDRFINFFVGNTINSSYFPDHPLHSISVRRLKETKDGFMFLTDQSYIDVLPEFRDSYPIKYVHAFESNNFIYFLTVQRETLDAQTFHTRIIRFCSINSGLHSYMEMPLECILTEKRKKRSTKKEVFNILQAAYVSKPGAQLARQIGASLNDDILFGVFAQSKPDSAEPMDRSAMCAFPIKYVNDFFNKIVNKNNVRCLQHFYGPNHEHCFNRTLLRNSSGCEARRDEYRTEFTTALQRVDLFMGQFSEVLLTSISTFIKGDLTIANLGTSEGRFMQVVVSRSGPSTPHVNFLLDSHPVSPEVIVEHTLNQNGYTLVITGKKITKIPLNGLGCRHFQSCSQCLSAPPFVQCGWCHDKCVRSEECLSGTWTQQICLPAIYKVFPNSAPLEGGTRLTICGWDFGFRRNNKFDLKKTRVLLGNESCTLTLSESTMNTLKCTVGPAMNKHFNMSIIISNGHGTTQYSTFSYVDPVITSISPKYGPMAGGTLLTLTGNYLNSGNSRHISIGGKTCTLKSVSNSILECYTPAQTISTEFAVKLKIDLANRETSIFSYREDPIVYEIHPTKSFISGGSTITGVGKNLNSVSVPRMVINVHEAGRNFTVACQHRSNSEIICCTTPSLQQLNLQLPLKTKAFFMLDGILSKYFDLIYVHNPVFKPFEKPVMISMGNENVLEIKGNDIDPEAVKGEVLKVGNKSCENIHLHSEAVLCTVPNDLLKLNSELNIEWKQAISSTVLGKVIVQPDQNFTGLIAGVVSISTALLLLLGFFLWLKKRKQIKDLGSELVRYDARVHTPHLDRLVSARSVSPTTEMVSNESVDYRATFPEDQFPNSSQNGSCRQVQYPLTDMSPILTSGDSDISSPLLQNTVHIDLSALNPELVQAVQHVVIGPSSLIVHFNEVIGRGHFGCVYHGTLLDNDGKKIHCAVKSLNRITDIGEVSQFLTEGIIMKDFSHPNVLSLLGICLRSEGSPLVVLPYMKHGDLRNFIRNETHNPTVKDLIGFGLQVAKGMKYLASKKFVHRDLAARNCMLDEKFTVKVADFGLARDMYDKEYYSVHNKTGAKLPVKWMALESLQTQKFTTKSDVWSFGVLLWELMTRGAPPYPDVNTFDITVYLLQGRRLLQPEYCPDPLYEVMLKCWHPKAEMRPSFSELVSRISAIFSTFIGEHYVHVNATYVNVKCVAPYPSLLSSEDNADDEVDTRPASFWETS
- measurement-description: Inhibition of c-Met (unknown origin) using poly (Glu, Tyr) 4:1 as substrate after 30 mins by HTRF assay
reported-metric: IC50
Please answer using the number first and the unit second.

Cc1cc(=O)n(-c2ccccc2F)nc1C(=O)Nc1ccc(Oc2ccnc3c2ccn3C)cc1 :: 14.4 nM

Each compound below has a reported value. Please supply its IC50.
1. Cc1cc(=O)n(-c2ccc(F)cc2)nc1C(=O)Nc1ccc(Oc2ccnc3[nH]ccc23)c(F)c1
2. Cc1cc(=O)n(-c2ccc(Cl)cc2Cl)nc1C(=O)Nc1ccc(Oc2ccnc3c2ccn3C)cc1

Key:
["1.06 nM", "49.2 nM"]

====

- Tested on: NCI-H460
- measurement-description: Cytotoxicity against human H460 cells after 72 hrs by MTT assay
- Type: functional, cell-based
- details: NCI-H460, 72 h
reported-metric: pIC50
One number for each entry, as −log10 of the molar value.

Each molecule below has a reported value. Please supply its pIC50.
1. Cc1cc(=O)n(-c2ccc(F)cc2)nc1C(=O)Nc1ccc(Oc2ccnc3[nH]ccc23)c(F)c1
2. Cc1cc(=O)n(-c2cccc(F)c2)nc1C(=O)Nc1ccc(Oc2ccnc3[nH]ccc23)cc1
3. Cc1cc(=O)n(-c2cccc(C(F)(F)F)c2)nc1C(=O)Nc1ccc(Oc2ccnc3c2ccn3C)c(F)c1
4. Cc1cc(=O)n(-c2ccc(F)cc2)nc1C(=O)Nc1ccc(Oc2ccnc3[nH]ccc23)cc1
5. Cc1cc(=O)n(-c2cccc(F)c2)nc1C(=O)Nc1ccc(Oc2ccnc3c2ccn3C)cc1

Key:
1: 7.04; 2: 6.72; 3: 6.28; 4: 6.80; 5: 6.49

====

- target-or-system: Vascular endothelial growth factor receptor 2 (Homo sapiens)
- Sequence (P35968 whole entry): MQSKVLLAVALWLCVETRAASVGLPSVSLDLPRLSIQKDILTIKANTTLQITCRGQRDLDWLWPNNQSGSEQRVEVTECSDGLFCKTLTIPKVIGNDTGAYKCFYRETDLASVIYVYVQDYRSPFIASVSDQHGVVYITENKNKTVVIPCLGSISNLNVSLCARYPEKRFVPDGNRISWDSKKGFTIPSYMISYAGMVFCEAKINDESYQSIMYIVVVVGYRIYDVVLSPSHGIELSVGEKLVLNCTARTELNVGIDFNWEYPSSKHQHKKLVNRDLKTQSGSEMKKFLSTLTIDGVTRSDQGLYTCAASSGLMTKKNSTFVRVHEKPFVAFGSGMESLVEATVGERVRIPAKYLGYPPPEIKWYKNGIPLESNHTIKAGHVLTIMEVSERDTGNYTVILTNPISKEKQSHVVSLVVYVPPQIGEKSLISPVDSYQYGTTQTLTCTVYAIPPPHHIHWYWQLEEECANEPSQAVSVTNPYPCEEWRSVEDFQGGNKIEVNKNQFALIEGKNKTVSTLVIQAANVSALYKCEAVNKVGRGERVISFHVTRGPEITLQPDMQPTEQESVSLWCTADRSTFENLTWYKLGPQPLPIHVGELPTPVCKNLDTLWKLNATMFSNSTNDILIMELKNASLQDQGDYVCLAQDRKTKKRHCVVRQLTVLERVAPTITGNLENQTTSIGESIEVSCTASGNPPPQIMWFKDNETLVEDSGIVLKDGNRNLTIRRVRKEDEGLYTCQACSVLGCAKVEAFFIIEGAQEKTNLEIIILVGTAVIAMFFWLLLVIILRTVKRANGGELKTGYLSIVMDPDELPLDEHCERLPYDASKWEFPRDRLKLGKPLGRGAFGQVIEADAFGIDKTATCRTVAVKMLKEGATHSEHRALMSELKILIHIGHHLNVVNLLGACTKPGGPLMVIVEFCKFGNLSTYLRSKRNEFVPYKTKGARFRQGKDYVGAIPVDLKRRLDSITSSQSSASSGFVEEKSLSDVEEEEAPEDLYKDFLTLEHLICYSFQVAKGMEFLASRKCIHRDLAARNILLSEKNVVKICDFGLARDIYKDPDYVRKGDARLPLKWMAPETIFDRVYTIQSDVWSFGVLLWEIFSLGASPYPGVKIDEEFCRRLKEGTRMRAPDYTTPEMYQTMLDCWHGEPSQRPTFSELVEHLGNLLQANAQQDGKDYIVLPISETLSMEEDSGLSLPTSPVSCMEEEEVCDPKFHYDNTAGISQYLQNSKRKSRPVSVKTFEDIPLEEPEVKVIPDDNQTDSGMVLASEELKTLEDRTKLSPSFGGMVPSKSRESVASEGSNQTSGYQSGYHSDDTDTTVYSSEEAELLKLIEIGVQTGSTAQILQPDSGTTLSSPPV
reported-metric: IC50 (nM)
Numbers only, in nM.

Exercise: # lookup: IC50 of Cc1cc(=O)n(-c2ccc(F)cc2)nc1C(=O)Nc1ccc(Oc2ccnc3[nH]ccc23)c(F)c1
Key: 672
